As an illustration, consider measured Ki for compounds on JAK3 (Homo sapiens).
Sequence (P52333 whole entry): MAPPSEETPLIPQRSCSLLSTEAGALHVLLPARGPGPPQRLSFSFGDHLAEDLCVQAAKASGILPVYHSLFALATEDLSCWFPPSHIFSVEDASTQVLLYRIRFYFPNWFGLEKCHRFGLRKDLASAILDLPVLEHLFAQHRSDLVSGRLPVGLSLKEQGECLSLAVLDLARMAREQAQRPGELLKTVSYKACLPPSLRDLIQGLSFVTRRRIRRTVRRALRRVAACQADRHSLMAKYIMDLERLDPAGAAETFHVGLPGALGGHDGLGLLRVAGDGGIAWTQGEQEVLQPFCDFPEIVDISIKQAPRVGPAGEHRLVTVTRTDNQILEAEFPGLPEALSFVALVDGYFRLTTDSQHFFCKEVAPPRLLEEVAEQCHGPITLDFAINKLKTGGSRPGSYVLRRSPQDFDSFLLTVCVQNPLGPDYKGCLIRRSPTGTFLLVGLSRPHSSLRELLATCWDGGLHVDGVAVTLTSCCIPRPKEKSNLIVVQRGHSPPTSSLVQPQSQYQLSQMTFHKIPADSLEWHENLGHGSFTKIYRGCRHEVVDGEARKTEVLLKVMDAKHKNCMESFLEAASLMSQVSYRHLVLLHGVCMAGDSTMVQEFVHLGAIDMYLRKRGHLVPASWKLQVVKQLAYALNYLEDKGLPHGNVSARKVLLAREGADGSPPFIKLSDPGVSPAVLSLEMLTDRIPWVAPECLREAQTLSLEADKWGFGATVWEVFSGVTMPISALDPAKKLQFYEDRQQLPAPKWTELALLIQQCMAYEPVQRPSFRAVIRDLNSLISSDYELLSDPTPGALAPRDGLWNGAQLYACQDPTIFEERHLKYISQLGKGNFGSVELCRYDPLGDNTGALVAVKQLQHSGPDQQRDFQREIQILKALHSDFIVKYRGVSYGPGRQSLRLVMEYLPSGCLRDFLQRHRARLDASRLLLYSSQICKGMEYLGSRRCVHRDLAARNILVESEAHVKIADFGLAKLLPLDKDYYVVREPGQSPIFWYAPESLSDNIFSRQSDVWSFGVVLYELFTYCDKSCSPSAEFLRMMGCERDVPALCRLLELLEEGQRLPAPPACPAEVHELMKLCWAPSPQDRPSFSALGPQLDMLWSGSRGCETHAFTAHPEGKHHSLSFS

{"compound_structure": "CC(C)[C@@H](Nc1nc(-c2c[nH]c(=O)c(N)c2)ncc1F)C(=O)NCC(F)(F)F", "recorded_value": "10 to 50 µM"}
{"compound_structure": "CC(C)(Nc1ccnc(-c2ccc3ncccc3c2)n1)C(=O)NCC(F)(F)F", "recorded_value": "≤ 1 µM"}
{"compound_structure": "CC(C)[C@@H](Nc1ccnc(-c2c[nH]c3ccc(Cl)cc23)n1)C(=O)NCC(F)(F)F", "recorded_value": "10 to 50 µM"}
{"compound_structure": "O=C(NCc1ccccc1)c1cc(-c2nccc(N3CCC[C@@H]3C(=O)NCC(F)(F)F)n2)c[nH]1", "recorded_value": "1 to 10 µM"}
{"compound_structure": "C[C@H](Nc1cc(-n2nc(Nc3ccc(F)cc3)nc2N)ncn1)C(=O)NCC(F)(F)F", "recorded_value": "≤ 1 µM"}

The compound listed as C[C@H](Nc1nc(-c2cccnc2)ncc1F)C(=O)NCC(F)(F)F has a reported Ki of 1 to 10 µM

Briefly, Ki measured for CC(C)(Nc1ccnc(-c2ccc3c(c2)OCO3)n1)C(=O)NCC(F)(F)F : ≤ 1 µM

// sample COc1ccc(Nc2nc(N)n(-c3ncc(F)c(NCC(=O)NCC(F)(F)F)n3)n2)cc1 , its Ki was 1 to 10 µM
